- Test system: crude intestinal α-glucosidase
- TEST NAME: In-vitro mammalian (rat intestinal) α-glucosidase inhibition assay
- Format: biochemical
- ASSAY CONTEXT: 1.25 mg/ml
REPORTED PROPERTY: Mammalian α-glucosidase inhibition (Mean ± S.E)
Phrase the answer as number then unit, nothing more needed.

{"columns": ["MOLECULE", "RECORDED VALUE"],
 "data": [
  ["Nc1c2c(nc3sc4c(c13)CCC4)CCC2 [BN-13]", "67.24 ± 1.08%"],
  ["Nc1c2c(nc3sc4c(c13)CCC4)CCCC2 [BN-14]", "51.56 ± 0.74%"],
  ["CC1CCc2c(nc3sc4c(c3c2N)CCC4)C1 (stereo not shown) [BN-15]", "78.49 ± 1.88%"]
]}

**Query** Please give measured Mammalian α-glucosidase inhibition (Mean ± S.E) of the following entry: Nc1c2c(nc3sc4c(c13)CCC4)CCCCCC2 [BN-17]
**Result** 66.57 ± 1.11%

----------
- Test system: Wistar rats
- TEST NAME: Antidiabetic activity by starch loaded model
- Type: in vivo, rat
- ASSAY CONTEXT: 120 min after starch; test compounds 100 mg/kg, Acarbose 10 mg/kg oral; in mg/dL (unit assumed)
// Blood glucose level, 120 min lookup, one value per entry
// response body must contain only the number

Solved cases (4 shown):
{"columns": ["COMPOUND", "TESTED ON", "REPORTED PROPERTY", "RECORDED VALUE"],
 "data": [
  ["C[C@H]1O[C@H](O[C@H]2[C@H](O)[C@@H](O)[C@@H](O[C@H]3[C@H](O)[C@@H](O)C(O)O[C@@H]3CO)O[C@@H]2CO)[C@H](O)[C@@H](O)[C@@H]1N[C@H]1C=C(CO)[C@@H](O)[C@H](O)[C@H]1O (some centres unmarked) [Acarbose, reference compound]", "Wistar rats", "Blood glucose level, 120 min", 108.62],
  ["Nc1c2c(nc3sc4c(c13)CCC4)CCCCCC2", "Wistar rats", "Blood glucose level, 120 min", 122.80],
  ["Nc1c2c(nc3sc4c(c13)CCC4)CCCC2", "Wistar rats", "Blood glucose level, 120 min", 99.83],
  ["CC1CCc2c(nc3sc4c(c3c2N)CCC4)C1 (centres unmarked)", "Wistar rats", "Blood glucose level, 120 min", 116.05]
]}

Let us examine a further case.
**Query** Tell me its Blood glucose level, 120 min given Nc1c2c(nc3sc4c(c13)CCC4)CCC2 as the entry.
**Result** 106.30

----------
- TEST NAME: Acute oral toxicity, main study in mice
- ASSAY CONTEXT: both sexes, mouse, in vivo, single oral dose, read-out: Maximum tolerated dose
REPORTED PROPERTY: MTD at 14 days

Check out these entries, answers already filled in.
{"columns": ["COMPOUND", "MTD at 14 days"],
 "data": [
  ["Nc1c2c(nc3sc4c(c13)CCC4)CCCCC2 [BN-16]", "> 2000 mg/kg"],
  ["Cc1sc2nc3c(c(N)c2c1C)CCCCC3 [BN-4]", "> 2000 mg/kg"]
]}

Next compound, MTD at 14 days to be filled in.
**Query** Retrieve MTD at 14 days measured for Nc1c2c(nc3sc4c(c13)CCC4)CCCC2 [BN-14] and print it.
**Result** 1250 mg/kg

----------
- Test system: crude intestinal α-glucosidase
- TEST NAME: In-vitro mammalian (rat intestinal) α-glucosidase inhibition assay
- Format: biochemical
- ASSAY CONTEXT: 2.5 mg/ml
Measured Mammalian α-glucosidase inhibition (Mean ± S.E) accompanies every entry in the list below.
Give a bare numeral; the unit % is implied.

Guide cases for Mammalian α-glucosidase inhibition (Mean ± S.E), answers given:
{"columns": ["COMPOUND", "READOUT UNITS", "RECORDED VALUE"],
 "data": [
  ["Nc1c2c(nc3sc4c(c13)CCC4)CCCCCC2 [BN-17]", "%", 70.69],
  ["Nc1c2c(nc3sc4c(c13)CCC4)CCCC2 [BN-14]", "%", 54.74],
  ["CC1CCc2c(nc3sc4c(c3c2N)CCC4)C1 (stereo not shown) [BN-15]", "%", 83.34]
]}

**Query** Return reported Mammalian α-glucosidase inhibition (Mean ± S.E) for target or system crude intestinal α-glucosidase, item Nc1c2c(nc3sc4c(c13)CCC4)CCC2 [BN-13] .
**Result** 71.39

----------
- System: Wistar rats
- TEST NAME: Cotton pellet granuloma (sub acute model)
- Assay type: in vivo, rat
- ASSAY CONTEXT: BN compounds 100 mg/kg, Indomethacin 5 mg/kg, daily for 7 days
REPORTED PROPERTY: Granuloma Dry Weight

Worked examples, 2 compounds total:
{"columns": ["COMPOUND", "TESTED ON", "Granuloma Dry Weight"],
 "data": [
  ["Nc1c2c(nc3sc4c(c13)CCC4)CCCCC2 [BN-16]", "Wistar rats", "84.16 ± 2.11 mg"],
  ["COc1ccc2c(c1)c(CC(=O)O)c(C)n2C(=O)c1ccc(Cl)cc1 [Indomethacin, reference compound]", "Wistar rats", "78.25 ± 2.19 mg"]
]}

**Query** Specify measured Granuloma Dry Weight for Nc1c2c(nc3sc4c(c13)CCC4)CCCC2 [BN-14] .
**Result** 86.75 ± 2.20 mg

**Query** Retrieve Granuloma Dry Weight measured for Cc1sc2nc3c(c(N)c2c1C)CCCCC3 [BN-4] and print it.
**Result** 83.33 ± 3.59 mg

----------
- Tested on: crude intestinal α-glucosidase
- TEST NAME: In-vitro mammalian (rat intestinal) α-glucosidase inhibition assay
- Type: biochemical
- ASSAY CONTEXT: 0.078125 mg/ml
# reported Mammalian α-glucosidase inhibition (Mean ± S.E); entries follow
Reply numerically in %, unit not repeated.

Answered cases to consult:
{"columns": ["MOLECULE", "RECORDED VALUE"],
 "data": [
  ["Nc1c2c(nc3sc4c(c13)CCC4)CCCCCC2", 26.77],
  ["Nc1c2c(nc3sc4c(c13)CCC4)CCC2", 27.07],
  ["CC1CCc2c(nc3sc4c(c3c2N)CCC4)C1 (stereo not shown)", 31.57]
]}

// next item, Mammalian α-glucosidase inhibition (Mean ± S.E) requested
**Query** Please give measured Mammalian α-glucosidase inhibition (Mean ± S.E) of the following entry: Nc1c2c(nc3sc4c(c13)CCC4)CCCC2
**Result** 20.75

----------
- System: crude intestinal α-glucosidase
- TEST NAME: In-vitro mammalian (rat intestinal) α-glucosidase inhibition assay
- Type: biochemical
- ASSAY CONTEXT: 0.15625 mg/ml
Measured Mammalian α-glucosidase inhibition (Mean ± S.E), listed per entry for reference.
Answers without a unit are incomplete; give the number and then its unit.

{"columns": ["MOLECULE", "TESTED ON", "RECORDED VALUE"],
 "data": [
  ["Nc1c2c(nc3sc4c(c13)CCC4)CCCC2 [BN-14]", "crude intestinal α-glucosidase", "26.76 ± 1.37%"]
]}

**Query** Input CC1CCc2c(nc3sc4c(c3c2N)CCC4)C1 (stereo not shown) [BN-15] , output reported Mammalian α-glucosidase inhibition (Mean ± S.E).
**Result** 40.72 ± 2.26%

**Query** Annotate the molecule Nc1c2c(nc3sc4c(c13)CCC4)CCCCCC2 [BN-17] with its measured Mammalian α-glucosidase inhibition (Mean ± S.E).
**Result** 34.53 ± 2.61%

**Query** Provide one value: measured Mammalian α-glucosidase inhibition (Mean ± S.E) of Nc1c2c(nc3sc4c(c13)CCC4)CCC2 [BN-13]
**Result** 34.89 ± 2.28%

----------
// reported Mammalian α-glucosidase inhibition (Mean ± S.E) for each item listed
- Tested on: crude intestinal α-glucosidase
- TEST NAME: In-vitro mammalian (rat intestinal) α-glucosidase inhibition assay
- Assay type: biochemical
- ASSAY CONTEXT: 0.039063 mg/ml
I only need the number, in %, no unit after it.

Sample records with Mammalian α-glucosidase inhibition (Mean ± S.E):
{"columns": ["MOLECULE", "TESTED ON", "RECORDED VALUE"],
 "data": [
  ["CC1CCc2c(nc3sc4c(c3c2N)CCC4)C1 (stereo not shown) [BN-15]", "crude intestinal α-glucosidase", 11.85],
  ["Nc1c2c(nc3sc4c(c13)CCC4)CCCCCC2 [BN-17]", "crude intestinal α-glucosidase", 10.04],
  ["Nc1c2c(nc3sc4c(c13)CCC4)CCC2 [BN-13]", "crude intestinal α-glucosidase", 10.06]
]}

**Query** Write down measured Mammalian α-glucosidase inhibition (Mean ± S.E) (crude intestinal α-glucosidase) for this molecule. Nc1c2c(nc3sc4c(c13)CCC4)CCCC2 [BN-14]
**Result** 7.79
